# Test system: BDF1 mice, P388 leukemia ip, median survival T/C
# Procedure details: NCI In Vivo Anticancer Drug Screen. Data for tumor model P388 Leukemia (intraperitoneal) in B6D2F1 (BDF1) mice
# Run conditions: endpoint: median survival time; dose: 50.0 mg/kg/injection; schedule: Q01DX009 (ip); vehicle: saline; higher = longer survival
# Protocol: The antitumor activity of compounds was measured in mice bearing transplantable tumors. Survival or tumor size were measured and the results are expressed as the measurement made in the treated group (T) divided by the measurement made in the vehicle treated control group (C). The tumor model used in this assay is P388 Leukemia (intraperitoneal) in B6D2F1 (BDF1) mice
Toxic doses and inconclusive results are not listed.
What T/C was measured for each of the following?

Item under review: CCCCCC(CN(C)C)C(O)/C=C/c1ccccc1Cl (configuration not stated) . Reported T/C?
117 % of control

Can you look up the measured T/C of `CC(=O)Nc1c(Cl)c(Cl)c2c(c1Cl)Cc1cc(Br)ccc1-2` for me?
95 % of control

Entry `CC(=O)OCc1ccc(-n2c(C(F)(F)F)nc3nc(Cl)c(Cl)nc32)o1` : reported T/C = ?
100 % of control

I'd like to know its T/C. The molecule in question is NC(CO)C(=O)O.[Cl-].[Cl-].[Cl-].[Cl-].[Pt+2] (configuration not stated)
116 % of control

Consider the molecule shown here: `O=C(Nc1ccc(CCNC2=NCCN2)cc1)c1ccc(C(=O)Nc2ccc(CCNC3=NCCN3)cc2)cc1` What is its recorded T/C?
122 % of control

Request the reported T/C associated with `OCCCC1CCCCC1`
111 % of control

What value of measured T/C is listed for `CCOC(=O)CCN1CCCCCC1` ?
120 % of control

Which value of T/C has been reported for `CC(=N\O)/C(C)=N/O.CC(=N\O)/C(C)=N/O.[Br][Rh][Br]` in the records?
100 % of control

If you can, please state the reported T/C value of `Cc1cc(C)c(C#N)c(=O)[nH]1` .
99 % of control

Name the reported T/C value associated with the molecule CCB(CC)OCC1OB(CC)OC1C1OB(CC)OC1COB(CC)CC (configuration not stated)
99 % of control

Given CC(C)=CC(=O)OCC1CC[N+](C)(C)C1 (configuration not stated) , state its recorded T/C.
100 % of control

Any idea what its T/C is? The molecule is COc1cc2c(cc1OC)C(CN)C2 (configuration not stated)
98 % of control
